pIC50 values by entry
# ASSAY_TARGET: EGFR (T790M) (Homo sapiens, UniProt P00533, T790M)
# Sequence (P00533 25-1210 T790M): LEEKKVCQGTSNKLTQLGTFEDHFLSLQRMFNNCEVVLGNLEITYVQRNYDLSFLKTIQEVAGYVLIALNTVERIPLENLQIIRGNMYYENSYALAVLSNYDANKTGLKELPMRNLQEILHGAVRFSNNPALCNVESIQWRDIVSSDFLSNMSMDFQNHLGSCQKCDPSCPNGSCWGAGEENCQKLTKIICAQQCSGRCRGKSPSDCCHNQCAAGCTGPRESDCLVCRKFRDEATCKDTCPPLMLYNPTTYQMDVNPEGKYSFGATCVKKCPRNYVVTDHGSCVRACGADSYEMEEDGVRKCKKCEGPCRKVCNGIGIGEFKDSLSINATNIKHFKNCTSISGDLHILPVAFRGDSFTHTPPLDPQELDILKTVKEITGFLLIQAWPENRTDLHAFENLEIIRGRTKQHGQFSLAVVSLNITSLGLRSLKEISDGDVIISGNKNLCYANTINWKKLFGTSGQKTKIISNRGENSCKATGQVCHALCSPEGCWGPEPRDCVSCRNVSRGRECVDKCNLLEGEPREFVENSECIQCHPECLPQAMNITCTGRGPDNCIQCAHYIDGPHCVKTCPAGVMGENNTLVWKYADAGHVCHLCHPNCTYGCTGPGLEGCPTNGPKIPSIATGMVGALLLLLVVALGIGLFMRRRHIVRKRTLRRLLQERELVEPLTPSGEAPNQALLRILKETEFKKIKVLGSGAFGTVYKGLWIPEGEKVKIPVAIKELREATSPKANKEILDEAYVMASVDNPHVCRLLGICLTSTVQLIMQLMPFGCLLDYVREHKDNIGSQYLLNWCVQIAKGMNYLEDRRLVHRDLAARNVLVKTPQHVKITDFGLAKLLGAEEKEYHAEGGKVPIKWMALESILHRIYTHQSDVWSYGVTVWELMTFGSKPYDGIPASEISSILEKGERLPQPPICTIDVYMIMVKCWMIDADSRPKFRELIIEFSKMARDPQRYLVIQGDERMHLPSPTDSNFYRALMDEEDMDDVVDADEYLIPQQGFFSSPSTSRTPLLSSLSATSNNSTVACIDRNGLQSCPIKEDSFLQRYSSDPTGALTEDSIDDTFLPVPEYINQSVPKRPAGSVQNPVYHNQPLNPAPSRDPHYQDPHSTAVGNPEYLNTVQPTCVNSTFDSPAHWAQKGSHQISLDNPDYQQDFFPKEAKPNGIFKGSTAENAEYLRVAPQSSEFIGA
# EXPERIMENTAL_DETAILS: EGFR tyrosine kinase inhibiting activity, ADP-Glo (EGFR (T790M) Kinase Enzyme System)
# CONDITION_SUMMARY: read-out: EGFR Kinase inhibition: IC50 T790M
pIC50: −log10 of the molar value.

{"COMPOUND": "O=C(/C=C/CN1CCN(CCF)CC1)N1CCc2c(sc3ncnc(N[C@H](CO)c4ccccc4)c23)C1 [P2]", "pIC50": 5.05}
{"COMPOUND": "O=C(/C=C/CN1CCN(CCOCCF)CC1)N1CCc2c(sc3ncnc(N[C@H](CO)c4ccccc4)c23)C1 [P9]", "pIC50": "< 5.00"}
{"COMPOUND": "C[C@@H](Nc1ncnc2sc3c(c12)CCN(C(=O)/C=C/CN1CCN(CCF)CC1)C3)c1ccccc1 [P5]", "pIC50": "< 5.00"}

Now for another entry.
Q: Reported pIC50 for O=C(/C=C/CN1CCN(CCOCCOCCOCCF)CC1)N1CCc2c(sc3ncnc(N[C@H](CO)c4ccccc4)c23)C1 [P10] : what is it?
Ans: < 5.00
